Test system: resistant colon (HT-29) cell line
Assay: Growth inhibition (MTT) in HT-29 colon cancer cells
Type: cell-based, human
Conditions: 72 h
reported_metric: IC50
Please answer using the number first and the unit second.

Which measured IC50 belongs to Cn1cnc(-c2ccccc2)c1-c1cccc(C=CC(=O)NO)c1 [Compound iso-4] , tested on resistant colon (HT-29) cell line? 2800 nM

Which measured IC50 belongs to Cn1cnc(-c2ccc(F)cc2)c1-c1ccc(C=CC(=O)NO)cc1 [Compound F-3] , tested on resistant colon (HT-29) cell line? 1450 nM

Which measured IC50 belongs to COc1ccc(-c2ncn(C)c2-c2ccc(C=CC(=O)NO)cc2)cc1 [Compound Nor-3] , tested on resistant colon (HT-29) cell line? 710 nM

====

Target: recombinant human HDAC1 (Homo sapiens, UniProt Q13547)
Sequence (Q13547 whole entry): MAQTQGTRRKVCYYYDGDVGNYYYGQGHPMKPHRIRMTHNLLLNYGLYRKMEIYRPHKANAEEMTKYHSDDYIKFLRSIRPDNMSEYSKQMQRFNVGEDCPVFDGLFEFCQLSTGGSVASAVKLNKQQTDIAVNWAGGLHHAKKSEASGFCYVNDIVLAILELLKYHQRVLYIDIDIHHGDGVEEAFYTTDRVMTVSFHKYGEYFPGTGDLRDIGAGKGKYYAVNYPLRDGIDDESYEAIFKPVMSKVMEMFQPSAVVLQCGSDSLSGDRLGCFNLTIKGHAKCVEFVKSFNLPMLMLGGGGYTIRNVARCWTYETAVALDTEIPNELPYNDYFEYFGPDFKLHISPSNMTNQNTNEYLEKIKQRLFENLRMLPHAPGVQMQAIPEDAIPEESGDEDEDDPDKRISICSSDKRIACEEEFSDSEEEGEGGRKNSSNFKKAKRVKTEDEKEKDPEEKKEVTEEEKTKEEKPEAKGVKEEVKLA
Experiment: Fluorescence-based HDAC activity assay, recombinant HDAC1
reported_metric: IC50 (nM)
Report the value in nM with no unit label.

Requested field: IC50. Item: "CCn1cnc(-c2ccc(OC)cc2)c1-c1ccc(/C=C/C(=O)NO)cc1" 187

Requested field: IC50. Item: "Cn1cnc(-c2ccccc2)c1-c1ccc(/C=C/C(=O)NO)cc1" 28

====

Kindly supply the reported IC50 values for the records listed here.
Tested on: non-malignant fibroblasts (CF, chicken fibroblasts)
Test: Growth inhibition in chicken fibroblasts
Format: cell-based
Settings: Gallus gallus, Fibroblast, 72 h

Requested field: IC50. Item: CCn1cnc(-c2ccc(OC)cc2)c1-c1ccc(/C=C/C(=O)NO)cc1 [Compound 3] > 50 µM

Requested field: IC50. Item: Cn1cnc(-c2ccccc2)c1-c1ccc(/C=C/C(=O)NO)cc1 [Compound 4] > 50 µM

====

Biological target: recombinant human HDAC6 (Homo sapiens)
Sequence (Q9UBN7 whole entry): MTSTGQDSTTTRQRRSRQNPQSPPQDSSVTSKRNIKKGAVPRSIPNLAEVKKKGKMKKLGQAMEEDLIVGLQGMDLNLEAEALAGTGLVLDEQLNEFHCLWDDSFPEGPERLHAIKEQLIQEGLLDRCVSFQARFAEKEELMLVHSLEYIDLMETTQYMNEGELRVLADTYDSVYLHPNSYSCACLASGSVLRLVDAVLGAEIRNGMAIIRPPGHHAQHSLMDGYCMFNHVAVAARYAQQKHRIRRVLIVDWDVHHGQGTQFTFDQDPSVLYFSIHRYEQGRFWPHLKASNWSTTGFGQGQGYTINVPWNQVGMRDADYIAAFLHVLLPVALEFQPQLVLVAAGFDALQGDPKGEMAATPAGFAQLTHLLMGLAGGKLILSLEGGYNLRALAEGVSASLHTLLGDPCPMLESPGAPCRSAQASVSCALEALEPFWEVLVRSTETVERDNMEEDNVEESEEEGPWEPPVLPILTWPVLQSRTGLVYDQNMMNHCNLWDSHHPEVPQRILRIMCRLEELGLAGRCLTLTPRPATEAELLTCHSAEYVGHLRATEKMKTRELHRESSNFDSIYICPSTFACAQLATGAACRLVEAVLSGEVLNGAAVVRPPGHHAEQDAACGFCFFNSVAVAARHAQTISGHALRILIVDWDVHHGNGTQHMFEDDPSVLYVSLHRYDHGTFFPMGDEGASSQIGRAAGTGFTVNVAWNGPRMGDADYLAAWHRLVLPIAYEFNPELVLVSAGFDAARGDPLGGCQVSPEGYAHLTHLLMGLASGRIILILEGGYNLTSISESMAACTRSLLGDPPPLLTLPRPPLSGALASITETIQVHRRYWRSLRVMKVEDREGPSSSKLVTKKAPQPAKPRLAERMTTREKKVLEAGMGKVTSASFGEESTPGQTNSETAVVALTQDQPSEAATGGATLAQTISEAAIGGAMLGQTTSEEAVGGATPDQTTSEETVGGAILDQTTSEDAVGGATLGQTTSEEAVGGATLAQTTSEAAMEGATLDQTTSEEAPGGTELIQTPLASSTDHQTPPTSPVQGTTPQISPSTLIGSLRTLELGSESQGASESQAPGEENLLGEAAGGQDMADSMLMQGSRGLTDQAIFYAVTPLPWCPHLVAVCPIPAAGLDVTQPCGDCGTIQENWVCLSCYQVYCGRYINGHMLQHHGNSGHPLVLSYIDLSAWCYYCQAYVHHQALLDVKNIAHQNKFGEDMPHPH
Assay: Fluorescence-based HDAC activity assay, recombinant HDAC6
Kindly supply the reported IC50 values for the records listed here.

Requested field: IC50. Item: "Cn1cnc(-c2ccccc2)c1-c1ccc(/C=C/C(=O)NO)cc1" 107 nM

Requested field: IC50. Item: "CCn1cnc(-c2ccc(OC)cc2)c1-c1ccc(/C=C/C(=O)NO)cc1" 66 nM
